Listing of entries alongside the reported MIC.
tested on: Cryptococcus neoformans; test: Antifungal activity against Cryptococcus neoformans ATCC 208821 assessed as fungal growth inhibition incubated for 36 hrs by resazurin dye based analysis; assay type: functional
property: MIC

smiles	property	meas value
CCCCCNC(=O)[C@@]1(C)CCC[C@]2(C)c3cc(OC(=O)CCCNCCCCNCCCNC(=O)Oc4ccc5c(c4)[C@@]4(C)CCC[C@](C)(C(=O)NCCCCC)[C@@H]4CC5)ccc3CC[C@@H]12.O=C(O)C(F)(F)F.O=C(O)C(F)(F)F	MIC	> 27.4 µM
C[C@]1(C(=O)NCCCNCCCCCCCCCCCCN)CCC[C@]2(C)c3cc(OC(=O)NCCCNCCCCCCCCCCCCN)ccc3CC[C@@H]12.O=C(O)C(F)(F)F.O=C(O)C(F)(F)F.O=C(O)C(F)(F)F.O=C(O)C(F)(F)F	MIC	> 25.5 µM
C[C@]1(C(=O)NCCCNCCCCCCCCCCCCNCCCNC(=O)[C@@]2(C)CCC[C@]3(C)c4cc(O)ccc4CC[C@@H]23)CCC[C@]2(C)c3cc(O)ccc3CC[C@@H]12.O=C(O)C(F)(F)F.O=C(O)C(F)(F)F	MIC	≤ 0.24 µM

* * *

tested on: Pseudomonas aeruginosa; assay: Antibacterial activity against Pseudomonas aeruginosa ATCC 27853 assessed as inhibition of bacterial growth measured after 18 hrs by resazurin dye based analysis; assay type: functional

molecule	MIC
C[C@]1(C(=O)NCCCNCCCCCCCCNCCCNC(=O)[C@@]2(C)CCC[C@]3(C)c4cc(O)ccc4CC[C@@H]23)CCC[C@]2(C)c3cc(O)ccc3CC[C@@H]12.O=C(O)C(F)(F)F.O=C(O)C(F)(F)F	> 32 µM
C[C@]1(C(=O)NCCCNCCCCCCCCCCCCN)CCC[C@]2(C)c3cc(O)ccc3CC[C@@H]12.O=C(O)C(F)(F)F.O=C(O)C(F)(F)F	> 43.1 µM
COC(=O)[C@@]1(C)CCC[C@]2(C)c3cc(OC(=O)CCCNCCCCCCCCCCCCNCCCNC(=O)Oc4ccc5c(c4)[C@@]4(C)CCC[C@](C)(C(=O)OC)[C@@H]4CC5)ccc3CC[C@@H]12.O=C(O)C(F)(F)F.O=C(O)C(F)(F)F	> 27.3 µM
COC(=O)[C@@]1(C)CCC[C@]2(C)c3cc(OC(=O)CCCNCCCCCCCCCCNCCCNC(=O)Oc4ccc5c(c4)[C@@]4(C)CCC[C@](C)(C(=O)OC)[C@@H]4CC5)ccc3CC[C@@H]12.O=C(O)C(F)(F)F.O=C(O)C(F)(F)F	> 28 µM
C[C@]1(C(=O)O)CCC[C@]2(C)c3cc(O)ccc3CC[C@@H]12 [PODOCARIC ACID]	> 117 µM
CCCCCNC(=O)[C@@]1(C)CCC[C@]2(C)c3cc(OC(=O)CCCNCCCCCCCCNCCCNC(=O)Oc4ccc5c(c4)[C@@]4(C)CCC[C@](C)(C(=O)NCCCCC)[C@@H]4CC5)ccc3CC[C@@H]12.O=C(O)C(F)(F)F.O=C(O)C(F)(F)F	> 26.1 µM
C[C@]1(C(=O)O)CCC[C@]2(C)c3cc(OC(=O)CCCNCCCCCCCCNCCCNC(=O)Oc4ccc5c(c4)[C@@]4(C)CCC[C@](C)(C(=O)O)[C@@H]4CC5)ccc3CC[C@@H]12.O=C(O)C(F)(F)F.O=C(O)C(F)(F)F	> 29.4 µM
C[C@]1(C(=O)NCCCNCCCCCCCCN)CCC[C@]2(C)c3cc(OC(=O)NCCCNCCCCCCCCN)ccc3CC[C@@H]12.O=C(O)C(F)(F)F.O=C(O)C(F)(F)F.O=C(O)C(F)(F)F.O=C(O)C(F)(F)F	> 28 µM
